The measurements presented in this section are drawn from the supplement of paper PMC10981050.

- Tested on: MARIMO;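 further: after 48 h exposure read by CellTiter-Glo luminescence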
- PROTOCOL: cell viability relative to vehicle control; higher = less cytotoxic
- MEASUREMENT CONTEXT: 10 µM; SRSF2 genotype: SRSF2 P95H/wt
MEASUREMENT LABEL: cell viability (%)

compound="O=C[C@H](O)[C@@H](O)[C@H](O[C@H]1O[C@H](CO)[C@@H](O[C@H]2O[C@H](CO)[C@@H](O[C@H]3O[C@H](CO)[C@@H](O[C@H]4O[C@H](CO)[C@@H](O)[C@H](O)[C@H]4O)[C@H](O)[C@H]3O)[C@H](O)[C@H]2O)[C@H](O)[C@H]1O)[C@H](O)CO [Maltopentaose]" result_unit=% measured_result=97.8
compound="O=C(O)CSCC(=O)NC1CCSC1=O (stereo not drawn) [Erdosteine]" result_unit=% measured_result=101
compound="NC(=O)[C@@H]1CC[C@@H]2CN1C(=O)N2OS(=O)(=O)O [Avibactam sodium]" result_unit=% measured_result=110
